# Test system: DU-145
# MEASUREMENT_NOTES: Cytotoxicity against human DU145 cells by MTT assay
# Type: functional, cell-based
# maps each entry to its IC50

# SMILES_STR, TARGET_UNDER_TEST, REPORTED_RELATION, IC50 / µM
measured = [
    ("CC(=O)O[C@H]1[C@H](O)[C@H](O)[C@]23C[C@]24CC[C@]2(C)[C@@H]([C@H](C)CCC=C(C)C)CC[C@@]2(C)[C@@H]4CC[C@H]3C1(C)C", "DU-145", "=", 20.7),
    ("CC(C)=CCC[C@@H](C)[C@H]1CC[C@@]2(C)[C@@H]3CC[C@H]4C(C)(C)[C@@H](OC(=O)CC(C)C)[C@H](O)[C@H](O)[C@@]45C[C@@]35CC[C@]12C", "DU-145", ">", 50),
    ("CC(C)=CCC[C@@H](C)[C@H]1CC[C@@]2(C)[C@@H]3CC[C@H]4C(C)(C)[C@@H](O)[C@H](O)[C@H](O)[C@@]45C[C@@]35CC[C@]12C", "DU-145", "=", 37.2),
]
